Data origin: the OPERA property sets (Mansouri et al. 2018)

Please use 1.0 for logP under 2 and 0.0 for everything else, ties included.

Examples with answers:
input.smiles: N#CN=[N+]([O-])c1cccc(C#N)c1
qualitative.label: 1.0
--
input.smiles: N#C/N=[N+](\[O-])c1ccccn1
qualitative.label: 1.0
--
input.smiles: N#CN=[N+]([O-])c1ccccc1
qualitative.label: 1.0

# input API: query returns whether the molecule falls strictly under 2 in logP. Query: N#CN=[N+]([O-])c1ccc(F)cc1
# output 1.0

# input # TODO verify logP < 2 strictly for this molecule: N#CN=[N+]([O-])c1ccnc2ccccc12
# output 0.0

# input Hi there! Is logP for N#C/N=[N+](\[O-])c1ccc(Br)cc1 below 2, do you know?
# output 0.0

# input Problem: For the molecule N#C/N=[N+](\[O-])c1ccc([N+](=O)[O-])cc1 , is logP under 2?
# output 1.0

# input Regarding N#CN=[N+]([O-])c1ncccn1 , kindly confirm whether its logP is beneath 2.
# output 1.0

# input Strictly below 2: is that where logP of N#CN=[N+]([O-])c1ccc(C#N)cc1 sits?
# output 1.0

# input Hello, is logP of the following molecule strictly smaller than 2? N#CN=[N+]([O-])c1cccc2ccccc12
# output 0.0

# input Is logP of CCNc1nonc1N strictly below 2?
# output 1.0

# input Lab note: confirm whether the reported logP for this molecule is below 2, equality not counting. molecule: N#C/N=[N+](\[O-])c1cccc(F)c1
# output 1.0

# input Criterion: logP strictly below 2. Is it met by Cc1ccc([N+]([O-])=NC#N)cc1 ?
# output 0.0

# input Threshold test, logP < 2: N#CN=[N+]([O-])c1cnccn1
# output 1.0
